Assay: GI Exposure PK in Mice
Assay type: in vivo
Details: mouse; Jejunum; male BalbC mice, oral dose of 5 mg/kg

| smiles representation | endpoint unit | AUC |
| --- | --- | --- |
| CNC(=O)c1coc(-c2cnc3[nH]ccc3c2N[C@@H]2C[C@H](C)CN(C(=O)CC#N)C2)n1 | ng·h/mL | 57400 |

----------
Target: Tyk-2 (Homo sapiens (Human))
Recorded IC50, one value per entry.

| smiles representation | IC50 |
| --- | --- |
| Cc1cc(-c2cnc3[nH]ccc3c2N[C@@H]2CCCN(C(=O)CC#N)C2)[nH]n1 | 10 to 100 nM |
| C[C@H]1C[C@@H](Nc2c(-c3cccc(CO)n3)cnc3[nH]ccc23)CN(C(=O)CC#N)C1 | ≤ 10 nM |
| N#CCC(=O)N1CCC[C@@H](Nc2c(-c3ccn(C(F)F)n3)cnc3[nH]ccc23)C1 | 10 to 100 nM |
| N#CCC(=O)N1CCC[C@@H](Nc2c(-c3ccn[nH]3)cnc3[nH]ccc23)C1 | 10 to 100 nM |
| N#CCC(=O)N1CCC[C@@H](Nc2c(-c3cscn3)cnc3[nH]ccc23)C1 | 10 to 100 nM |

----------
Counter-ions that a name gives are not always drawn.
The reader will find IC50 measurements below, all made with JAK2 (Homo sapiens (Human)).
Sequence (O60674 whole entry): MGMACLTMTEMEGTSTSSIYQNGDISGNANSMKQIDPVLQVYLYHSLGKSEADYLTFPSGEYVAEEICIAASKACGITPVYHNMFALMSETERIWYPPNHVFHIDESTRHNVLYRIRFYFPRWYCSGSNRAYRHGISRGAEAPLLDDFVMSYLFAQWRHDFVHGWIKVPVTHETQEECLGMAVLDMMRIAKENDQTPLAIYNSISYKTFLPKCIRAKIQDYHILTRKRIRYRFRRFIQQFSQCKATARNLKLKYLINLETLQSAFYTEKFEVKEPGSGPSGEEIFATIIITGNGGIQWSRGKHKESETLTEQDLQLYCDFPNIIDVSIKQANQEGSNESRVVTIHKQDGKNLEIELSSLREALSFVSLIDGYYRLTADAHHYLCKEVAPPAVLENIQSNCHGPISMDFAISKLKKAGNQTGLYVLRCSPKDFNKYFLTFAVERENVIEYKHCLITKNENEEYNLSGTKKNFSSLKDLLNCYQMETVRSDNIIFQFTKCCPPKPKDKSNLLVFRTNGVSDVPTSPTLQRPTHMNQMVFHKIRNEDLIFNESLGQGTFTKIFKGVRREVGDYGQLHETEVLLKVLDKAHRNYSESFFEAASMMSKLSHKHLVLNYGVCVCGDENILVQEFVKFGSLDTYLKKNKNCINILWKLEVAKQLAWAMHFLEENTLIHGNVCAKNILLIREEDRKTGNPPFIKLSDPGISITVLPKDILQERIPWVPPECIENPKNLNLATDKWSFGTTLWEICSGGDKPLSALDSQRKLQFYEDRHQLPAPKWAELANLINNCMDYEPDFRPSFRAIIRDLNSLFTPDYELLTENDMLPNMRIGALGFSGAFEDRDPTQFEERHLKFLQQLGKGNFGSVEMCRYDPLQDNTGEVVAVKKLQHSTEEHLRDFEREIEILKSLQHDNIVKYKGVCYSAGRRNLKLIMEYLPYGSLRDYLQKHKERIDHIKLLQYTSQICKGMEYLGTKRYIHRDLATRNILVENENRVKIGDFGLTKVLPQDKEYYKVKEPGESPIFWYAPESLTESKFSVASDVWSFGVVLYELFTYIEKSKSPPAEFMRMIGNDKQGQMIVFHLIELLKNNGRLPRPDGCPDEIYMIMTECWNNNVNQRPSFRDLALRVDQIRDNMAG
reported endpoint: IC50

| compound | reported endpoint | assay result |
| --- | --- | --- |
| C[C@H]1CC[C@@H](Nc2c(-c3ncco3)cnc3[nH]ccc23)CN1C(=O)CC#N | IC50 | ≤ 10 nM |
| N#CCC(=O)N1CCC[C@@H](Nc2c(-c3ccsn3)cnc3[nH]ccc23)C1 | IC50 | ≤ 10 nM |
| Cn1ccnc1-c1cnc2[nH]ccc2c1N[C@@H]1CCCN(C(=O)CC#N)C1 | IC50 | > 1000 nM |
| Cc1cc(-c2cnc3[nH]ccc3c2N[C@@H]2CCCN(C(=O)CC#N)C2)[nH]n1 | IC50 | 10 to 100 nM |
| CS(=O)(=O)c1ccc(-c2cnc3[nH]ccc3c2N[C@@H]2CCCN(C(=O)CC#N)C2)nc1 | IC50 | 10 to 100 nM |
| Cc1nc(-c2cnc3[nH]ccc3c2N[C@@H]2CCCN(C(=O)CC#N)C2)no1 | IC50 | 100 to 1000 nM |
| CNCCOc1cccc(-c2cnc3[nH]ccc3c2N[C@@H]2CCCN(C(=O)CC#N)C2)n1 [Example 58, hydrochloride] | IC50 | 100 to 1000 nM |
| Cc1cnc(-c2cnc3[nH]ccc3c2N[C@@H]2CCCN(C(=O)CC#N)C2)o1 | IC50 | ≤ 10 nM |

----------
Experiment: GI Exposure PK in Mice
Assay type: in vivo
Conditions: mouse, portal vein plasma (pre-hepatic); Portal plasma; male BalbC mice, oral dose of 5 mg/kg

| compound | AUC, ng·h/mL |
| --- | --- |
| CNC(=O)c1coc(-c2cnc3[nH]ccc3c2N[C@@H]2C[C@H](C)CN(C(=O)CC#N)C2)n1 [Example 31] | 17.2 |

----------
Endpoint: pIC50. System: Tyk-2 (Homo sapiens (Human), UniProt P29597). Items follow.
Sequence (P29597 whole entry): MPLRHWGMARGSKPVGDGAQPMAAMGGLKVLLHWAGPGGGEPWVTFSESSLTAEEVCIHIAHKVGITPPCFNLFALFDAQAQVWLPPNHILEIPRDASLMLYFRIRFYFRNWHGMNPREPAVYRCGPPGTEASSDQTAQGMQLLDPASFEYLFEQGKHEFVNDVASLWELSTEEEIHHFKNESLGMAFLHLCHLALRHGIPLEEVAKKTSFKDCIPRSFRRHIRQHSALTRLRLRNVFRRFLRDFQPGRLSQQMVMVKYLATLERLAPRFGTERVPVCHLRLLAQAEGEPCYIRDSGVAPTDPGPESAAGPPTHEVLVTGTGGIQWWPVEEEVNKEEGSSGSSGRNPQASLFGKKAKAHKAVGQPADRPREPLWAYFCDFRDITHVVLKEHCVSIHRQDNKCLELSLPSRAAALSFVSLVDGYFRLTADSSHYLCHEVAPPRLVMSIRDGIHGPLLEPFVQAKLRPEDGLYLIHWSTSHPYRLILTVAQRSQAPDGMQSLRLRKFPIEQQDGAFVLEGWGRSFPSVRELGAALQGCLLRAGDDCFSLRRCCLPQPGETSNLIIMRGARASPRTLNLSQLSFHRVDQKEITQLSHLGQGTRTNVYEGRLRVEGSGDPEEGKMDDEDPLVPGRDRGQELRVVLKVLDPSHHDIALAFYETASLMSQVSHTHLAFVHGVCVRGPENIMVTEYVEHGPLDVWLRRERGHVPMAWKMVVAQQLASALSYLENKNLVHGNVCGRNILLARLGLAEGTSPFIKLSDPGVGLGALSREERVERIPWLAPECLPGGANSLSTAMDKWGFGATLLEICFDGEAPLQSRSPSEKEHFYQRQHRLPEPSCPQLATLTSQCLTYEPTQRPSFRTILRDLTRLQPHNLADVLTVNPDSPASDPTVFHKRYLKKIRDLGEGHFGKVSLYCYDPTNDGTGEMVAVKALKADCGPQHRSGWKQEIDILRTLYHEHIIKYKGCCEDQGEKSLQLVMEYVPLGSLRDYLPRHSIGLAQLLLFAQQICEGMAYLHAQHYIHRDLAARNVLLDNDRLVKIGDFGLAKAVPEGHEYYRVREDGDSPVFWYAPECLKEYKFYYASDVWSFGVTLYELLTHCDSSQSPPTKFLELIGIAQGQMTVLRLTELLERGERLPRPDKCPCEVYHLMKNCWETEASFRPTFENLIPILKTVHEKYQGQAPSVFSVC
pIC50: −log10 of the molar value.

| compound | test system | pIC50 |
| --- | --- | --- |
| N#CCC(=O)N1CCC[C@@H](Nc2c(-c3cccc(N)n3)cnc3[nH]ccc23)C1 [Example 44] | Tyk-2 (Homo sapiens (Human), UniProt P29597) | 7.00 to 8.00 |
| C[S+]([O-])c1cnc(-c2cnc3[nH]ccc3c2N[C@@H]2CCCN(C(=O)CC#N)C2)s1 (stereo partly shown) [Example 45] | Tyk-2 (Homo sapiens (Human), UniProt P29597) | ≥ 8.00 |
| CS(=O)(=O)c1cnc(-c2cnc3[nH]ccc3c2N[C@@H]2CCCN(CCC#N)C2)s1 [Example 47] | Tyk-2 (Homo sapiens (Human), UniProt P29597) | 7.00 to 8.00 |
| CSc1nccc(-c2cnc3[nH]ccc3c2N[C@@H]2CCCN(C(=O)CC#N)C2)n1 [Example 49] | Tyk-2 (Homo sapiens (Human), UniProt P29597) | 7.00 to 8.00 |
